# inhibition values compiled below
assay: inhibitors of induced NF-kB luciferase reporter, primary screen, TCR NF-kB activation inhibitor project, cell-based, luminescence, uHTS (AID 435003); settings: Jurkat, PMA/ionomycin-induced NF-kB luciferase reporter, at 4 µM, active compounds read high
Among all 330,000 compounds or so, about 1,700 (0.52%) were called active. The list comes from a sample in which actives are over-represented; it also holds close analogues and randomly drawn compounds.

{"columns": ["SMILES_CODE", "UNIT_ABBREVIATION", "inhibition"],
 "data": [
  ["C/C(=C(\\C#N)C(=O)NCCCN1CCOCC1)N(C)C", "%", -10.8],
  ["Cc1ccc(S(=O)(=O)N2CCN(C(=O)Cc3sc(C)nc3-c3ccc(F)cc3)CC2)c(C)c1", "%", 0.534],
  ["Cc1ccc(S(=O)(=O)N/N=C(\\c2ccccc2)C2CC2)cc1", "%", -1.73]
]}

====

test: inhibitors of induced NF-kB luciferase reporter, primary screen, TCR NF-kB activation inhibitor project, cell-based, luminescence, uHTS (AID 435003); conditions: Jurkat, PMA/ionomycin-induced NF-kB luciferase reporter, at 4 µM, active compounds read high
Among all 330,000 compounds or so, about 1,700 (0.52%) were called active. Only a selection was taken, and actives are over-represented in it overall.
# inhibition values compiled below
PARAMETER_MEASURED: inhibition (%)

{"columns": ["COMPOUND", "UNIT_ABBREVIATION", "MEAS_VALUE"],
 "data": [
  ["COc1cccc(-n2c(=S)[nH]c3c(oc4ccccc43)c2=O)c1", "%", -22.5],
  ["CS(=O)(=O)N1CCN(C(=O)c2cc3ccccc3oc2=O)CC1", "%", 2.45],
  ["CCOc1ccc(NC(=O)CCS(=O)(=O)c2ccc3c(c2)CCCN3C(=O)CC)cc1", "%", -12],
  ["Cc1cc(=O)[nH]c(Nc2cccc(Br)c2)n1", "%", 12.3],
  ["Cn1c(-c2ccc(C(F)(F)F)cc2)cc2onc(-c3ccccc3)c2c1=O", "%", -242],
  ["COc1ccc(NC(=O)C(C)N2c3cccc4cccc(c34)S2(=O)=O)c(OC)c1 (configuration not stated)", "%", 21.7],
  ["O=C(NCc1ccccc1)C(=O)NCC1OCCN1S(=O)(=O)c1ccc(Br)cc1 (configuration not stated)", "%", 13.9]
]}

====

assay: inhibitors of induced NF-kB luciferase reporter, primary screen, TCR NF-kB activation inhibitor project, cell-based, luminescence, uHTS (AID 435003); conditions: Jurkat, PMA/ionomycin-induced NF-kB luciferase reporter, at 4 µM, active compounds read high
About 1,700 (0.52%) of roughly 330,000 compounds were called active. The sample holds actives, similar compounds and a random draw of the others, so the mix is not that of the screen.
// class 0 strictly below -20% in inhibition; class 1 otherwise

{"columns": ["MOLECULE", "CLASS_LABEL"],
 "data": [
  ["CCCOC(=O)c1[nH]c2c(c1C)C(=O)CC(c1cccs1)C2 (stereo unspecified)", "class 1"],
  ["CCCC(C(=O)NC1CCCC1)N(C(=O)Cn1nnc(-c2ccc(C)o2)n1)c1cccc(O)c1 (stereo unspecified)", "class 1"],
  ["O=C(Nc1ccccc1C(F)(F)F)c1cc(-c2ccc(O)cc2)on1", "class 0"],
  ["C[C@@H]1C[C@@H]2O[C@H]2/C=C\\C=C\\C(=O)Cc2c(Cl)c(O)cc(O)c2C(=O)O1", "class 1"],
  ["Nc1c(C(=O)Nc2ccc3c(c2)OCCO3)nnn1Cc1ccccc1", "class 0"],
  ["Cc1ccc(O)c(NC(=O)c2cc(-c3ccco3)on2)c1", "class 1"],
  ["COC(=O)C1C(=O)c2c([nH]c(C(=O)OCCSC)c2C)CC1C (stereo unspecified)", "class 0"],
  ["O=C(COCc1cc(-c2ccc3c(c2)OCO3)on1)N1CCN(c2cccc(Cl)c2)CC1", "class 1"],
  ["CCOC(=O)c1cccc(NC(=O)C2CCN(c3ncnc4c3nc3n4CCCCC3)CC2)c1", "class 1"],
  ["OC(CNCCc1ccc(Cl)cc1Cl)COc1ccccc1 (stereo unspecified)", "class 1"],
  ["CC(C)Cc1cc(C(=O)Nc2cc(Br)ccc2O)no1", "class 0"],
  ["Cc1ccc(C(=O)OCC(=O)Nc2ccc(Cl)cn2)cc1S(=O)(=O)N1CCOCC1", "class 1"],
  ["O=C(Nc1ccc(Br)cc1)c1cccc(NC(=O)C2C3CC4OC(=O)C2C4C3)c1 (stereo unspecified)", "class 1"],
  ["O=C(NCCOc1ccccc1Cl)C(=O)Nc1ccccc1", "class 1"],
  ["COCCOC(=O)c1[nH]c2c(c1C)C(=O)CC(c1ccc(OC)cc1)C2 (stereo unspecified)", "class 1"]
]}
